Tested on: Proteus vulgaris 101N ATCC 6380
Assay: In vitro MIC, Agar Well Diffusion Method
Type: cell-based
Details: ATCC6380, Culture Proteus vulgaris 101N ATCC 6380
Where a name gives a salt, the structure may show the parent alone.
Measured Quantity: MIC (µg/mL)

Compound: CON=C(C(=O)NC1C(=O)N2C1SC(C)(CSc1nnnn1C)C2C(=O)O)c1csc(N)n1 (stereo not shown) [Compound C, monosodium salt]
Tested Target: Proteus vulgaris 101N ATCC 6380
Test Result: 31.3

Compound: Cn1nnnc1SCC1(C)SC2C(NC(=O)Cc3ccccc3)C(=O)N2C1C(=O)O (stereo not shown) [Compound B, monosodium salt]
Tested Target: Proteus vulgaris 101N ATCC 6380
Test Result: 15.6

(1) CC(=O)Oc1ccc(C(=O)OCC2(C)SC3C(NC(=O)Cc4ccccc4)C(=O)N3C2C(=O)O)cc1OC(C)=O (stereo not shown) [Compound H, monosodium salt]
(2) CC1(C[n+]2ccccc2)SC2C(NC(=O)Cc3ccccc3)C(=O)N2C1C(=O)[O-] (stereo not shown)
(3) CC1(CN=[N+]=[N-])SC2C(NC(=O)Cc3ccccc3)C(=O)N2C1C(=O)O (stereo not shown) [Compound D, monosodium salt]
(4) CC(=O)SCC1(C)SC2C(NC(=O)Cc3ccccc3)C(=O)N2C1C(=O)O (stereo not shown) [Compound G, monosodium salt]
(5) CCN1CCN(C(=O)NC(C(=O)NC2C(=O)N3C2SC(C)(CSc2nnnn2C)C3C(=O)O)c2ccccc2)C(=O)C1=O (stereo not shown) [Compound A, monosodium salt sesquihydrate]
input: Order the records so the highest MIC appears first and the lowest last. Use the labels to give the requested order.
output: 2, 1, 4, 3, 5
(2: 125 µg/mL, 1: 62.5 µg/mL, 4: 31.3 µg/mL, 3: 15.6 µg/mL, 5: 0.98 µg/mL)

###

Tested on: Pseudomonas aeruginosa 56M
Test: In vitro MIC, Agar Well Diffusion Method
Type: cell-based
Conditions: Culture Pseudomonas aeruginosa 56M
Counter-ions that a name gives are not always drawn.
Measured Quantity: MIC (µg/mL)

# annotated cases, reported MIC shown
Compound: Cn1nnnc1SCC1(C)SC2C(NC(=O)Cc3ccccc3)C(=O)N2C1C(=O)O (stereo not shown) [Compound B, monosodium salt]
Measured Quantity: MIC
Test Result: 0.98
--
Compound: CC(=O)SCC1(C)SC2C(NC(=O)Cc3ccccc3)C(=O)N2C1C(=O)O (stereo not shown) [Compound G, monosodium salt]
Measured Quantity: MIC
Test Result: 0.98
--
Compound: CC1(C[n+]2ccccc2)SC2C(NC(=O)Cc3ccccc3)C(=O)N2C1C(=O)[O-] (stereo not shown)
Measured Quantity: MIC
Test Result: 3.9

(I) CON=C(C(=O)NC1C(=O)N2C1SC(C)(CSc1nnnn1C)C2C(=O)O)c1csc(N)n1 (stereo not shown) [Compound C, monosodium salt]
(II) CC1(CN=[N+]=[N-])SC2C(NC(=O)Cc3ccccc3)C(=O)N2C1C(=O)O (stereo not shown) [Compound D, monosodium salt]
(III) CCN1CCN(C(=O)NC(C(=O)NC2C(=O)N3C2SC(C)(CSc2nnnn2C)C3C(=O)O)c2ccccc2)C(=O)C1=O (stereo not shown) [Compound A, monosodium salt sesquihydrate]
(IV) CC(=O)Oc1ccc(C(=O)OCC2(C)SC3C(NC(=O)Cc4ccccc4)C(=O)N3C2C(=O)O)cc1OC(C)=O (stereo not shown) [Compound H, monosodium salt]
input: Order the records so the highest MIC appears first and the lowest last. Use the labels to give the requested order.
output: II, IV, I, III
(II: 3.9 µg/mL, IV: 1.95 µg/mL, I: 0.98 µg/mL, III: 0.49 µg/mL)
